tested target: human CCR6 (Homo sapiens)
Sequence (P51684 whole entry): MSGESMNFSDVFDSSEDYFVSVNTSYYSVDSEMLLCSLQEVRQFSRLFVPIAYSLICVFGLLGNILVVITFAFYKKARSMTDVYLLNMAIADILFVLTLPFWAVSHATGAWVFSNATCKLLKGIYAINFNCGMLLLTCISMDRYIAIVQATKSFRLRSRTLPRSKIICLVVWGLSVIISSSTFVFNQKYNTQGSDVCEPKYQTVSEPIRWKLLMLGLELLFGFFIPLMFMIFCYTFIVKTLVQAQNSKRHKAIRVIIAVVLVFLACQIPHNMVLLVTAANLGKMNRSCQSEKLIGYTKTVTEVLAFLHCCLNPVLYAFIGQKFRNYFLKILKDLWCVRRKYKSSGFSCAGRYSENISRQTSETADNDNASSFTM
protocol notes: Migration assay (chemotaxis, ChemoTX)
condition summary: hCCR6-transfected Ba/F3 cells in human serum, migration to recombinant human CCL20 10 nM, 37° C. 45 minutes; read-out: Potency (IC50 value in the migration assay)
property: IC50

Worked set:
compound | IC50
NC(=O)c1cccc(-c2ccc(S(=O)(=O)N3CC[C@@H](Nc4ccc(C(F)(F)F)cn4)[C@@H](O)C3)cc2)c1 [Compound 117] | < 1 nM
Nc1cc(-c2ccc(S(=O)(=O)N3CC[C@@H](Nc4ccc(C(F)(F)F)cn4)[C@@H](O)C3)cc2)ccn1 [Compound 126] | 1 to 10 nM

Turning now to a further compound:
Entry CN1CCN(c2cncc(-c3ccc(S(=O)(=O)N4CC[C@@H](Nc5ccc(C(F)(F)F)cn5)[C@@H](O)C4)cc3)c2)CC1 [Compound 108] , IC50 reported as < 1 nM

Value source: patent US12018016B2
